System: Epidermal growth factor receptor (Homo sapiens), P00533 [L858R]
Sequence (P00533 whole entry L858R): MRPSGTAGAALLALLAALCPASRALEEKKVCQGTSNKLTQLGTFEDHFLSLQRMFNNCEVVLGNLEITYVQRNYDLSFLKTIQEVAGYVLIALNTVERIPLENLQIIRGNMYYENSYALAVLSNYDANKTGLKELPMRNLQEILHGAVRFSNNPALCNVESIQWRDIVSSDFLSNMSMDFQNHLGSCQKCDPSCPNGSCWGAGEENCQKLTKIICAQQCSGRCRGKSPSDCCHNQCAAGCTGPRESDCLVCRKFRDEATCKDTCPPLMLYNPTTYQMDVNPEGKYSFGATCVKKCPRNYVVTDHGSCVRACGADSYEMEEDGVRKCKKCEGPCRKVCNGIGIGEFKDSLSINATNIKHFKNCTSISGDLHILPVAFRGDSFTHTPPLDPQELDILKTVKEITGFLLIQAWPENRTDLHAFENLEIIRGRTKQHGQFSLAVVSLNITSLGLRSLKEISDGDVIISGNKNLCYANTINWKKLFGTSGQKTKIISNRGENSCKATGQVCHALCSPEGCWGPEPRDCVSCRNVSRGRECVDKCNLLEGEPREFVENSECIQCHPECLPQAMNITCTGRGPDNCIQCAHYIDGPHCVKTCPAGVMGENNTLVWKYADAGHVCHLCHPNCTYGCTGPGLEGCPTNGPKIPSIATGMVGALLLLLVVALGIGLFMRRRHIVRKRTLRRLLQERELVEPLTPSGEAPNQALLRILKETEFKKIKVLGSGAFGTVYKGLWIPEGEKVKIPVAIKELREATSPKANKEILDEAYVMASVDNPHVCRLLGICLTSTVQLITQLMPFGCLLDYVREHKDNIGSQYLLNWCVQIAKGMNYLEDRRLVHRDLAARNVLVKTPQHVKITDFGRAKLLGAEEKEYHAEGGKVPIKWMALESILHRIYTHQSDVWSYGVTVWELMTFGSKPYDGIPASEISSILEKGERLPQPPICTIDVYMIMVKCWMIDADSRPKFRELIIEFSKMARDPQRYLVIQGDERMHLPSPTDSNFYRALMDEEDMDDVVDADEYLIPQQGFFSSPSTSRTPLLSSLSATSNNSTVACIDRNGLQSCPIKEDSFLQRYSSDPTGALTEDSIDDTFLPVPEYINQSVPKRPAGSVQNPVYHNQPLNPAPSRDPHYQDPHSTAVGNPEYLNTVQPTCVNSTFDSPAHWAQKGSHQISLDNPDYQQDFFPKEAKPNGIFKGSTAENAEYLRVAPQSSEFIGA
Conditions: at 0.1 µM
# Lookup of reported inhibition keyed by entry
Answer in %, number only, no unit symbol.

Some compounds with known inhibition results, for comparison:
Compound | Units label | inhibition
[O-][S+]1CCN(Cc2ccc(-c3ccc4ncnc(Nc5ccc(OCc6cccc(F)c6)c(Cl)c5)c4c3)o2)CC1 | % | 88.1
Cc1ccc(O)cc1Nc1ccnc2cc(-c3ccccn3)ccc12 | % | 88.8
COC(=O)Nc1nc2ccc(Oc3ccc(NC(=O)Nc4cccc(Cl)c4)cc3)cc2[nH]1 | % | -0.65
N#Cc1c(NC(=O)CN2CCOCC2)sc2c1CCCC2 | % | 3.01
COc1cc2ncn(-c3cc(OCc4ccccc4C(F)(F)F)c(C(=O)N(C)C)s3)c2cc1OC | % | -1.55
COc1ccc(-c2nn3ncccc3c2-c2ccnc(Nc3ccc4c(c3)OCCO4)n2)cc1 | % | 8.22

(Q) Please give the measured inhibition for this compound: CC(C)COC(=O)c1ccc2c(c1)/C(=C/Nc1ccc(S(N)(=O)=O)cc1)C(=O)N2
(A) -0.29

(Q) Similarly, Cc1cccc2c1NC(=O)/C2=N\Nc1ccc(S(N)(=O)=O)cc1 ?
(A) 3.74

(Q) Similarly, CN1CCC(n2cnc(-c3ccc(F)cc3)c2-c2ccnc(Nc3ccccc3)n2)CC1 ?
(A) 37

(Q) Similarly, CNC(=O)c1cncc(/C=C/c2ccccc2Cl)c1 ?
(A) 1.57

(Q) Similarly, CS(=O)(=O)CCNCc1ccc(-c2ccc3ncnc(Nc4ccc(OCc5ccccc5)c(C(F)(F)F)c4)c3c2)o1 ?
(A) 9.52

(Q) Similarly, NC(=O)c1sc(-n2cnc3ccc(C(F)(F)F)cc32)cc1OCc1ccccc1Br ?
(A) 1.72

(Q) Similarly, Nc1nc(-c2cccc(Cl)c2)c(-c2ccc3ncccc3n2)s1 ?
(A) 0.4

###

# Lookup of reported inhibition keyed by entry
Biological target: Serine/threonine-protein kinase Sgk3 (Homo sapiens) (UniProt Q96BR1);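 further: each value is a mean of replicate inhibition readings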
Sequence (Q96BR1 whole entry): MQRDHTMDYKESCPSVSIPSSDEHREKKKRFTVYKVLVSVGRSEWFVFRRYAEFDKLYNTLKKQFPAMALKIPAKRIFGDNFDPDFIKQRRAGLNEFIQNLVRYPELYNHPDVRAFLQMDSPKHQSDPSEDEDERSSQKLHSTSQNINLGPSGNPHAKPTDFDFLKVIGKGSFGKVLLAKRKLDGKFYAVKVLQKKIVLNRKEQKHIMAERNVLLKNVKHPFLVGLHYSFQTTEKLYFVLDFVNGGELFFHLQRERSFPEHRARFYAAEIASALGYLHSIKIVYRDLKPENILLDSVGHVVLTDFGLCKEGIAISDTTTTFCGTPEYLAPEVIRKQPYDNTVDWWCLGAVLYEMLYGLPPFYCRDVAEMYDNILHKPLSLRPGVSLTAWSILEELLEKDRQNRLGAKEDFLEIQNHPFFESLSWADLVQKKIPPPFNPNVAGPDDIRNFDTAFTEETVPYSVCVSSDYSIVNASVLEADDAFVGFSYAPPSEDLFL
Conditions: at 1 µM
Answer in %, number only, no unit symbol.

Compound | inhibition [%]
COc1ccc(-c2cc(-c3c[nH]nc3-c3ccccn3)ccn2)cc1 | 6.74
CS(=O)(=O)CCNCc1ccc(-c2ccc3ncnc(Nc4ccc(OCc5ccccc5)c(C(F)(F)F)c4)c3c2)o1 | 4.06

(Q) Please give the measured inhibition for this compound: O=C(O[C@H]1CN[C@H](C#Cc2cc3ncnc(Nc4ccc(Cc5ccccc5)cc4)c3s2)C1)N1CCOCC1
(A) 5.58

(Q) Similarly, CC(C)COC(=O)c1ccc2c(c1)/C(=C/Nc1ccc(S(N)(=O)=O)cc1)C(=O)N2 ?
(A) 3.19

(Q) Similarly, COc1cccc(-n2ncc3c(N/N=C/c4ccc(F)cc4)ncnc32)c1 ?
(A) 3.63

###

Biological target: Phosphatidylinositol 4,5-bisphosphate 3-kinase catalytic subunit delta isoform (Homo sapiens) (UniProt O00329);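 further: reported values are mean percent inhibition of PI3K-delta activity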
Sequence (O00329 whole entry, canonical isoform): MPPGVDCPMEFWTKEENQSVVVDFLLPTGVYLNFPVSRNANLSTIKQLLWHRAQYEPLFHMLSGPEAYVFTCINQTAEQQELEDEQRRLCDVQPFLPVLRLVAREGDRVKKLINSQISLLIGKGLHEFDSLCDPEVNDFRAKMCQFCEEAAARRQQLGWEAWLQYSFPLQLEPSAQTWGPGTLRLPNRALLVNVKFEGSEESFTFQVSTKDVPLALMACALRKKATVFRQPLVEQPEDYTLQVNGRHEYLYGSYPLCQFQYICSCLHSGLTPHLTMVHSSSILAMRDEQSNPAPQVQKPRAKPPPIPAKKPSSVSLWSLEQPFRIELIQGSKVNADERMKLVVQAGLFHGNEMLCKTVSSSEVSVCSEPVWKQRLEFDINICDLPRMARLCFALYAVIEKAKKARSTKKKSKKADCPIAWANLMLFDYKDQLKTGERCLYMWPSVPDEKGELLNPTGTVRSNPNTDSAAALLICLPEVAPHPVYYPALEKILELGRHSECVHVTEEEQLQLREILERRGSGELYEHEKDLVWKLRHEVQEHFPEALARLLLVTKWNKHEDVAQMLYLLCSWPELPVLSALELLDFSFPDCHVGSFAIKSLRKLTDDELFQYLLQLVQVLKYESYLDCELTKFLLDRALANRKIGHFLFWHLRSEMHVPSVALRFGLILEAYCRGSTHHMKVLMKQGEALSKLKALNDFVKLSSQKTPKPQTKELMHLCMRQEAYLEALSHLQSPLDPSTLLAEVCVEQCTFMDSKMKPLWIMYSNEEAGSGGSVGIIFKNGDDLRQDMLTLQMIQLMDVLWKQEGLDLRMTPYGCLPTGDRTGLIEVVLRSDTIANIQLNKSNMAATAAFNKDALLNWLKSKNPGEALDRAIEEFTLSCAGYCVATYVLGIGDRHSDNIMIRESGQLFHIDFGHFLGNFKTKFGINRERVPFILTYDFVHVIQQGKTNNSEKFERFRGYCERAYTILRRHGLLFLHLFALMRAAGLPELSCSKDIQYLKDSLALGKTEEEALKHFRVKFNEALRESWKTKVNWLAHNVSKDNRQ
Details: at 1 µM
Measurement kind: inhibition (%)
Answer in %, number only, no unit symbol.

Some compounds with known inhibition results, for comparison:
Smi | inhibition (%)
COc1ccc(-c2cc3c(N)ncnc3o2)cc1 | 0.07
CN(C)CCOc1ccc(-c2nc(-c3ccncc3)c(-c3ccc4c(c3)CC/C4=N\O)[nH]2)cc1 | 4.12
COC(=O)Nc1nc2ccc(S(=O)(=O)c3ccc(NC(=O)Nc4cc(C(F)(F)F)ccc4F)cc3)cc2[nH]1 | 2.98
CCN(CC)S(=O)(=O)c1ccc(OC)c(Nc2ncc(-c3ccccc3)o2)c1 | -1.28

(Q) Please give the measured inhibition for this compound: NS(=O)(=O)c1ccc(Nc2ncc(-c3ccccc3)o2)cc1
(A) 3.33

###

Target: Serine/threonine-protein kinase 10 (Homo sapiens) (UniProt O94804);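 further: reported value is the mean percent inhibition of LOK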
Sequence (O94804 whole entry, looked up): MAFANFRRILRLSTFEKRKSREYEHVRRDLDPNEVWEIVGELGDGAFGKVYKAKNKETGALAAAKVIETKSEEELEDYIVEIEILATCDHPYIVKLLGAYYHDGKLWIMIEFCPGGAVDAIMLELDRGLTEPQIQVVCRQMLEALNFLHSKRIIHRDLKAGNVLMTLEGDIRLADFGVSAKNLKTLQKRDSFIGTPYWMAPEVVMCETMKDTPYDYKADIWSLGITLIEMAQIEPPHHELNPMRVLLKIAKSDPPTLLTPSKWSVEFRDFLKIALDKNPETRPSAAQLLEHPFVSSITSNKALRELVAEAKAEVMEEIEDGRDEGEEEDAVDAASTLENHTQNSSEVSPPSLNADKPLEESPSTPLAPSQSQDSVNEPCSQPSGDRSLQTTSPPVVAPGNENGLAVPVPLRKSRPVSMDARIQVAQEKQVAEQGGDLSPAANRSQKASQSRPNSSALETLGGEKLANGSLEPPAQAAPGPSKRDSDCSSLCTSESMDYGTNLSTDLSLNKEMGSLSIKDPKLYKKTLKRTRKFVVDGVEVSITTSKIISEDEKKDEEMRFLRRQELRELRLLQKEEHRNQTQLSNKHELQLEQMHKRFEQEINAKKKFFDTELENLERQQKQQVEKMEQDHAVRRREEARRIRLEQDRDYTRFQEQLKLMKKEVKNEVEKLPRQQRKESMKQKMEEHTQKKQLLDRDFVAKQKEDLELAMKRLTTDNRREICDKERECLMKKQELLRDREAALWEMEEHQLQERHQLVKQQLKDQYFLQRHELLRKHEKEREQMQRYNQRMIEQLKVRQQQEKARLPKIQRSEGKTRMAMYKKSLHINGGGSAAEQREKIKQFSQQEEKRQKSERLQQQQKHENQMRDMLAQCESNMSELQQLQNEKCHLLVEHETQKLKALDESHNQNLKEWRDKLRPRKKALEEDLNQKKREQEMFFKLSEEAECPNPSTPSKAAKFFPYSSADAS
Conditions: at 1 µM
# Lookup of reported inhibition keyed by entry
Answer in %, number only, no unit symbol.

Some compounds with known inhibition results, for comparison:
Smi | Numeric value
CCn1cc(-c2ccnc3[nH]ccc23)c(-c2cccc(NC(=O)Nc3ccc(OCc4ccccc4)cc3)c2)n1 | 7.07
COC(=O)c1sc(-n2cnc3cc(OC)c(OC)cc32)cc1OCc1ccccc1C(F)(F)F | 21.6

(Q) Please give the measured inhibition for this compound: CNC(=O)c1cncc(/C=C/c2ccccc2Cl)c1
(A) 8.22

(Q) Similarly, FC(F)(F)c1cccc(-c2nn3ncccc3c2-c2ccnc(Nc3ccc4c(c3)OCCO4)n2)c1 ?
(A) 19.8

(Q) Similarly, O=C(Nc1n[nH]c2cc(-c3ccc(F)cc3)ccc12)C1CC1 ?
(A) 8.91

(Q) Similarly, CCn1c(-c2nonc2N)nc2c(C#CC(C)(C)O)ncc(OC3CCNCC3)c21 ?
(A) 11.2

###

# Lookup of reported inhibition keyed by entry
Biological target: Tyrosine-protein kinase TXK (Homo sapiens) (UniProt P42681);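 further: each listed value is a mean percent inhibition of TXK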
Sequence (P42681 whole entry): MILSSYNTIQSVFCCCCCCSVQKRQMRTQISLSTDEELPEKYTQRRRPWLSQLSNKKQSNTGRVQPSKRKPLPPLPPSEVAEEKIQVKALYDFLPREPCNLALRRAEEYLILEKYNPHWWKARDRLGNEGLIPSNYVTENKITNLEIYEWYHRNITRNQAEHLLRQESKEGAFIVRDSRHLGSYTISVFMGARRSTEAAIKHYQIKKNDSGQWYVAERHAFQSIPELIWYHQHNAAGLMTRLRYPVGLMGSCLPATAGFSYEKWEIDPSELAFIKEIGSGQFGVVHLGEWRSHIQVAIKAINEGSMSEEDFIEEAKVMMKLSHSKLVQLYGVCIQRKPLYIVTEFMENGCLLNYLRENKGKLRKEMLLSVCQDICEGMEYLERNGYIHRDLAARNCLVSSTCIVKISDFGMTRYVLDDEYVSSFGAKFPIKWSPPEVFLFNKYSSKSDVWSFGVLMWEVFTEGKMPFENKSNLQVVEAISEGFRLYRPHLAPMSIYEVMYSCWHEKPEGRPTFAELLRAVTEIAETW
Conditions: at 0.1 µM

Some compounds with known inhibition results, for comparison:
Smi | Measurement kind | Result
CCn1c(-c2nonc2N)nc2c(C#CC(C)(C)O)ncc(OC3CCNCC3)c21 | inhibition | 6.03%
Cc1ccc2c(-c3ccnc(Nc4ccccc4)n3)c(-c3ccc(F)cc3)nn2n1 | inhibition | 8.09%
Cc1cccc(Nc2ncc(-c3ccccc3)o2)c1 | inhibition | 7.08%

(Q) Please give the measured inhibition for this compound: O=S(=O)(CCNCc1ccc(-c2ccc3ncnc(Nc4ccc(OCc5cccc(F)c5)c(Cl)c4)c3c2)o1)c1ccccc1
(A) -1.02%

(Q) Similarly, COC(=O)Nc1nc2ccc(S(=O)(=O)c3ccc(NC(=O)Nc4cc(C(F)(F)F)ccc4F)cc3)cc2[nH]1 ?
(A) 2.55%

(Q) Similarly, COc1cc2ncn(-c3cc(OCc4ccccc4C(F)(F)F)c(C(=O)N(C)C)s3)c2cc1OC ?
(A) 1.47%

(Q) Similarly, NS(=O)(=O)c1ccc(Nc2ncc(-c3ccccc3)o2)cc1 ?
(A) 4.63%

(Q) Similarly, CCOc1ccc2c(-c3ccnc(Nc4cccc(C(F)(F)F)c4)n3)cnn2n1 ?
(A) -0.13%

(Q) Similarly, COc1ccc(CNC(=O)c2ccc(-c3cc(-c4nnc(C)o4)ccc3C)cc2)cc1 ?
(A) 3.95%

(Q) Similarly, N#Cc1c(NC(=O)c2ccc(F)cc2)sc2c1CCCC2 ?
(A) 1.7%

###

Tested on: Receptor-type tyrosine-protein kinase FLT3 (Homo sapiens), P36888 [D835Y]
Sequence (whole entry): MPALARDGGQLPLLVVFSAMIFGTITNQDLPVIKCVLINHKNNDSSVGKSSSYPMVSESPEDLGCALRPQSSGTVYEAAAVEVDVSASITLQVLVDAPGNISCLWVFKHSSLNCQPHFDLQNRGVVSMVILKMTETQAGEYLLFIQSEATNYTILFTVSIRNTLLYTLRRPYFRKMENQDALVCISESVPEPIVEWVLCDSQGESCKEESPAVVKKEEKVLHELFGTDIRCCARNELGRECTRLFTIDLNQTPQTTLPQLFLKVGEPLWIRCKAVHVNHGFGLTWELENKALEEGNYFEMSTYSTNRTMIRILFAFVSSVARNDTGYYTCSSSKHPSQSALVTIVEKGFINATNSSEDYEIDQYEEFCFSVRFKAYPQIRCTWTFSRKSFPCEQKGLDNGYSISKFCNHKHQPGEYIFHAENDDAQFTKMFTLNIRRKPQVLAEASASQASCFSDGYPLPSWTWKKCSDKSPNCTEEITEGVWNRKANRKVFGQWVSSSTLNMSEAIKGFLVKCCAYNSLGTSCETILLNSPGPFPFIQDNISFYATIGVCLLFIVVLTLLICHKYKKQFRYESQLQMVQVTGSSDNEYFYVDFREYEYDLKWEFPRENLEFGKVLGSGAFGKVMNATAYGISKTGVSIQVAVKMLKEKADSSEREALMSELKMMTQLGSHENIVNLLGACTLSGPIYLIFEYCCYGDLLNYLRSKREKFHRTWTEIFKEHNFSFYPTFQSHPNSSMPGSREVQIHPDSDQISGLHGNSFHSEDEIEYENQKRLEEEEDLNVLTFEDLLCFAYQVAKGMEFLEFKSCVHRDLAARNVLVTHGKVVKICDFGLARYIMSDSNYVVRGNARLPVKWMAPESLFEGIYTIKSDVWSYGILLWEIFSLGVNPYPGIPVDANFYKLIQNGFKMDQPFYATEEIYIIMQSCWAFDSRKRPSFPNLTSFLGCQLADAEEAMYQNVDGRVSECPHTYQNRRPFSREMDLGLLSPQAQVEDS
Details: at 1 µM
Measurement kind: inhibition (%)
Answer in %, number only, no unit symbol.

Some compounds with known inhibition results, for comparison:
Smi | Measurement kind | Units label | Numeric value
CCN1CCC(CC(=O)Nc2n[nH]c3nnc(-c4cccc(F)c4F)cc23)CC1 | inhibition | % | -2.23
FC(F)(F)c1cccc(-c2nn3ncccc3c2-c2ccnc(Nc3ccc4c(c3)OCCO4)n2)c1 | inhibition | % | 3.11
Cc1cccc2c1NC(=O)/C2=N\Nc1ccc(S(N)(=O)=O)cc1 | inhibition | % | 10.5
N#Cc1c(NC(=O)CN2CCOCC2)sc2c1CCCC2 | inhibition | % | 0.1
NS(=O)(=O)c1ccc(Nc2ncc(-c3ccccc3)o2)cc1 | inhibition | % | 21.6

(Q) Please give the measured inhibition for this compound: COc1cc(N2CCN(C(C)C)CC2)ccc1Nc1nc(Nc2ccc(F)cc2C(N)=O)c2cc[nH]c2n1
(A) 40.7

(Q) Similarly, CN1CCC(n2cnc(-c3ccc(F)cc3)c2-c2ccnc(Nc3ccccc3)n2)CC1 ?
(A) 2.38
